- assay-summary: Intrinsic clearance in rat liver microsomes
- Type: ADME, Microsome
# cutoff 50 µL/min/mg applies to microsomal CLint; >= gives Condition met, < gives Condition not met

Enquiry: Would you say CCS(=O)(=O)c1ccc2c(c1)nc(C(C)(C)C)n2C1CC1 shows microsomal CLint at minimum 50 µL/min/mg?
Return: Condition not met

Enquiry: Would you say CN(C)CCS(=O)(=O)c1ccc2c(c1)nc(CC(C)(C)C)n2CC1CC1 shows microsomal CLint at minimum 50 µL/min/mg?
Return: Condition met

Enquiry: Would you say CCS(=O)(=O)c1ccc2c(c1)nc(C1(C)CC1)n2CC1CC1 shows microsomal CLint at minimum 50 µL/min/mg?
Return: Condition not met

Enquiry: Would you say CCS(=O)(=O)c1ccc2c(c1)nc(C1(C)CCCC1)n2CC1CC1 shows microsomal CLint at minimum 50 µL/min/mg?
Return: Condition met

Enquiry: Would you say CC(C)(C)Cc1nc2cc(S(=O)(=O)Cc3ccccc3)ccc2n1CC1CC1 shows microsomal CLint at minimum 50 µL/min/mg?
Return: Condition met

Enquiry: Would you say CCS(=O)(=O)c1ccc2c(c1)nc(C(C)(C)C)n2CC1CC1 shows microsomal CLint at minimum 50 µL/min/mg?
Return: Condition not met

Enquiry: Would you say CCS(=O)(=O)c1ccc2c(c1)nc(C(C)(C)C)n2C[C@@H]1CCCO1 shows microsomal CLint at minimum 50 µL/min/mg?
Return: Condition not met

Enquiry: Would you say CCS(=O)(=O)c1ccc2c(c1)nc(C(C)(C)C)n2CCN(C)C shows microsomal CLint at minimum 50 µL/min/mg?
Return: Condition not met

Enquiry: Would you say CCS(=O)(=O)c1ccc2c(c1)nc(C1CCC1)n2CC1CC1 shows microsomal CLint at minimum 50 µL/min/mg?
Return: Condition not met

Enquiry: Would you say CCS(=O)(=O)c1ccc2c(c1)nc(C(C)(C)C)n2CCOC(F)(F)F shows microsomal CLint at minimum 50 µL/min/mg?
Return: Condition not met

Enquiry: Would you say CCCc1nc2cc(S(=O)(=O)CC)ccc2n1CC1CC1 shows microsomal CLint at minimum 50 µL/min/mg?
Return: Condition not met

Enquiry: Would you say CN(C)CCn1c(CC(C)(C)C)nc2cc(S(=O)(=O)CC(C)(C)O)ccc21 shows microsomal CLint at minimum 50 µL/min/mg?
Return: Condition not met

Enquiry: Would you say CCS(=O)(=O)c1ccc2c(c1)nc(C1CCCC1)n2CC1CC1 shows microsomal CLint at minimum 50 µL/min/mg?
Return: Condition met

Enquiry: Would you say CC(C)S(=O)(=O)c1ccc2c(c1)nc(CC(C)(C)C)n2CC1CC1 shows microsomal CLint at minimum 50 µL/min/mg?
Return: Condition met

Enquiry: Would you say CCS(=O)(=O)c1ccc2c(c1)nc(CC(C)(C)C)n2CC1CC1 shows microsomal CLint at minimum 50 µL/min/mg?
Return: Condition not met

Enquiry: Would you say CC(C)(C)Cc1nc2cc(S(=O)(=O)C(C)(C)CO)ccc2n1CC1CC1 shows microsomal CLint at minimum 50 µL/min/mg?
Return: Condition met

Enquiry: Would you say CC(C)(C)Cc1nc2cc(S(=O)(=O)CC(C)(C)O)ccc2n1CC1CC1 shows microsomal CLint at minimum 50 µL/min/mg?
Return: Condition met
